# assayedSystem: Caspase-8 (Homo sapiens)
# Construct: mixing the compounds with the respective active caspases; purchased BioVision K158-100
# Sequence (Q14790 217-374 limits assumed): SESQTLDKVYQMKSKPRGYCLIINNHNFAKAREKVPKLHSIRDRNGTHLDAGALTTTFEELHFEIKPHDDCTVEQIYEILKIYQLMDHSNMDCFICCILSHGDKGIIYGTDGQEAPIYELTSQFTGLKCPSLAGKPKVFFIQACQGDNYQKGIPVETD
# Sequence (Q14790 385-479 limits assumed): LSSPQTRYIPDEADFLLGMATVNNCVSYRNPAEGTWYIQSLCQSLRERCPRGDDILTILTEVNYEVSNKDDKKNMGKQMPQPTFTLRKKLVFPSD
# assayComment: Caspase-8 inhibitor screening assay (BioVision kit, IETD-AFC)
# Type: biochemical
# settings: 10 uM; read-out: % Inhibition at 10 uM Casp8
Structures can show the parent of a compound that is named as a salt.
Use 2% as the dividing line for inhibition at 10 µM, with the line itself on the class 1 side and lower values as class 0.

In plain terms: is recorded inhibition at 10 µM at least 2% for CC(C)(C)[C@H](NC(=O)[C@H](CC(=O)O)NC(=O)OCc1ccccc1)C(=O)N1CCCC1C(=O)N[C@H](/C=C/S(C)(=O)=O)CC(=O)O (stereo in doubt) [Compound 26, Z-Asp-t-Leu-Pro-Asp-methyl vinyl sulfone] ?
class 1

In plain terms: is recorded inhibition at 10 µM at least 2% for CCOC(=O)/C=C/[C@@H](N)CC(=O)O [Compound 44, Asp ethyl vinyl ester tosyl salt] ?
class 0

In plain terms: is recorded inhibition at 10 µM at least 2% for CC(C)[C@H](NC(=O)c1ccc2ccccc2n1)C(=O)N[C@H](/C=C/S(C)(=O)=O)CC(=O)O [Compound 16] ?
class 1

In plain terms: is recorded inhibition at 10 µM at least 2% for CC(C)[C@H](NC(=O)[C@H](Cc1cn(C)c2ccccc12)NC(=O)[C@H](CC(=O)O)NC(=O)OCc1ccccc1)C(=O)N[C@H](/C=C/S(C)(=O)=O)CC(=O)O [Compound 36] ?
class 0

In plain terms: is recorded inhibition at 10 µM at least 2% for CS(=O)(=O)/C=C/[C@H](CC(=O)O)NC(=O)[C@H]1CCCN1C(=O)[C@@H](NC(=O)[C@H](CC(=O)O)NC(=O)OCc1ccccc1)c1ccccc1 [Compound 30] ?
class 1

In plain terms: is recorded inhibition at 10 µM at least 2% for CC(C)(C)OC(=O)CC[C@H](NC(=O)OC(C)(C)C)C(=O)N[C@H](/C=C/S(C)(=O)=O)CC(=O)OC(C)(C)C [Compound 21] ?
class 1

In plain terms: is recorded inhibition at 10 µM at least 2% for CC(C)(C)[C@@H](NC(=O)[C@H](CC(=O)O)NC(=O)OCc1ccccc1)C(=O)N1CC[C@@H]1C(=O)N[C@H](/C=C/S(C)(=O)=O)CC(=O)O [Compound 32] ?
class 1

In plain terms: is recorded inhibition at 10 µM at least 2% for CS(=O)(=O)/C=C/[C@H](CC(=O)O)NC(=O)[C@H](CCC(=O)O)NC(=O)c1ccc2ccccc2n1 [Compound 18] ?
class 0

In plain terms: is recorded inhibition at 10 µM at least 2% for CS(=O)(=O)/C=C/[C@H](CC(=O)O)NC(=O)C1CCCN1C(=O)[C@@H](NC(=O)[C@H](CC(=O)O)NC(=O)OCc1ccccc1)C1CC1 (stereo in doubt) [Compound 28] ?
class 1

In plain terms: is recorded inhibition at 10 µM at least 2% for CCC(C)[C@H](NC(=O)[C@H](CCC(=O)O)NC(=O)[C@@H](NC(=O)OCc1ccccc1)C(C)C)C(=O)N[C@H](/C=C/S(C)(=O)=O)CC(=O)O (stereo partly drawn) [Compound 38, Z-Val-Glu-Ile-Asp-methyl vinyl sulfone] ?
class 1

Please turn your attention to the following entry.
In plain terms: is recorded inhibition at 10 µM at least 2% for CC(C)(C)[C@H](NC(=O)c1ccc2ncccc2c1)C(=O)N1CCCC1C(=O)N[C@H](/C=C/S(C)(=O)=O)CC(=O)O (stereo in doubt) [Compound 10] ?
class 1

* * *

// inhibition at 100 µM lookup, one value per entry
# assayedSystem: Caspase-1 (Homo sapiens)
# Construct: mixing the compounds with the respective active caspases; purchased BioVision K151-100
# Sequence (P29466 120-297 limits assumed): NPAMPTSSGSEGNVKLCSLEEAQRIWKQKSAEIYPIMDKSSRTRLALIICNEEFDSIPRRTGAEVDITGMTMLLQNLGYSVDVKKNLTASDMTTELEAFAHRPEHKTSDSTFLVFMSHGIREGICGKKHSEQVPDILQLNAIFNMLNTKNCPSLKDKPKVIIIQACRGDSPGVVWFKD
# Sequence (P29466 317-404 limits assumed): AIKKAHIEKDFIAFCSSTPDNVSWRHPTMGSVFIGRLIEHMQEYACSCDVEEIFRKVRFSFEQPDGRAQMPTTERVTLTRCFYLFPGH
# assayComment: Caspase-1 inhibitor screening assay (BioVision kit, YVAD-AFC)
# Type: biochemical
# settings: read-out: % Inhibition at 100 uM Casp1
Where a name gives a salt, the structure may show the parent alone.
Provide only the numeric value, understood in %.

See these solved cases before continuing.
Record summary for CCOC(=O)/C=C/[C@@H](N)CC(=O)O [Compound 44, Asp ethyl vinyl ester tosyl salt] : reported inhibition at 100 µM = 0

Record summary for CS(=O)(=O)/C=C/[C@H](CC(=O)O)NC(=O)[C@H]1CCC(=O)N1 [Compound 24] : reported inhibition at 100 µM = 10

Record summary for CS(=O)(=O)/C(Cl)=C/[C@@H](N)CC(=O)O [Compound 4] : reported inhibition at 100 µM = 0

Next:
Record summary for CS(=O)(=O)/C=C/[C@H](CC(=O)O)NC(=O)C1CCCN1C(=O)[C@@H](NC(=O)[C@H](CC(=O)O)NC(=O)OCc1ccccc1)C1CC1 (stereo in doubt) [Compound 28] : reported inhibition at 100 µM = 90

* * *

# assayedSystem: Caspase-10 (Homo sapiens, UniProt Q92851)
# Construct: mixing the compounds with the respective active caspases; purchased BioVision K160-100
# Sequence (Q92851 220-415 limits assumed): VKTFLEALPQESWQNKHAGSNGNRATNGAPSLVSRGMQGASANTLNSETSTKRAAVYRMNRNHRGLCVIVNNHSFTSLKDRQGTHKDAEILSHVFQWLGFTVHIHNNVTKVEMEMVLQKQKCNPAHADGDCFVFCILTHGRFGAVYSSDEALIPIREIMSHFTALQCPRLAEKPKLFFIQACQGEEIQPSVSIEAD
# Sequence (Q92851 416-521 limits assumed): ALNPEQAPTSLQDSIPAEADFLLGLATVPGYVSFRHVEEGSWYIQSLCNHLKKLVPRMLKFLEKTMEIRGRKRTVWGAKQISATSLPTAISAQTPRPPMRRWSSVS
# assayComment: Caspase-10 inhibitor screening assay (BioVision kit, AEVD-AFC)
# Format: biochemical
# settings: read-out: IC50 Casp10
measuredParameter: IC50 (µM)
Provide only the numeric value, understood in µM.

Record summary for CS(=O)(=O)/C=C/[C@H](CC(=O)O)NC(=O)C1CCCN1C(=O)[C@@H](NC(=O)[C@H](CC(=O)O)NC(=O)OCc1ccccc1)C1CC1 (stereo in doubt) : reported IC50 = 2.45

Record summary for CC(C)[C@H](NC(=O)[C@@H](N)Cc1ccc(O)cc1)C(=O)N[C@@H](C)C(=O)N[C@H](/C=C/S(C)(=O)=O)CC(=O)O : reported IC50 = 34

Record summary for CC(C)(C)[C@H](NC(=O)[C@H](CC(=O)O)NC(=O)OCc1ccccc1)C(=O)N1CCCC1C(=O)N[C@H](/C=C/S(C)(=O)=O)CC(=O)O (stereo in doubt) : reported IC50 = 0.16

Record summary for CCC(C)[C@H](NC(=O)[C@H](CCC(=O)O)NC(=O)[C@@H](NC(=O)OCc1ccccc1)C(C)C)C(=O)N[C@H](/C=C/S(C)(=O)=O)CC(=O)O (stereo partly shown) : reported IC50 = 0.13

Record summary for CC(C)(C)[C@@H](NC(=O)[C@H](CC(=O)O)NC(=O)OCc1ccccc1)C(=O)N1CC[C@@H]1C(=O)N[C@H](/C=C/S(C)(=O)=O)CC(=O)O : reported IC50 = 0.42

Could you now look at the following compound, please?
Record summary for CC(C)(C)[C@H](NC(=O)c1ccc2ncccc2n1)C(=O)N1CCCC1C(=O)N[C@H](/C=C/S(C)(=O)=O)CC(=O)O (stereo in doubt) : reported IC50 = 18

* * *

# assayedSystem: Caspase-6 (Homo sapiens, UniProt P55212)
# Construct: mixing the compounds with the respective active caspases; purchased BioVision K156-100
# Sequence (P55212 24-179 limits assumed): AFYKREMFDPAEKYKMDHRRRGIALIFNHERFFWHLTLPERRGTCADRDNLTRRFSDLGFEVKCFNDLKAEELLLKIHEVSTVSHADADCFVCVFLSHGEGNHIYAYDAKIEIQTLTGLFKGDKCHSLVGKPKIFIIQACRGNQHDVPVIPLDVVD
# Sequence (P55212 194-293 limits assumed): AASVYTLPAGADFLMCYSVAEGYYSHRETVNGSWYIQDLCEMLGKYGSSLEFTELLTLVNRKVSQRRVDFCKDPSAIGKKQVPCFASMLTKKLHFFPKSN
# assayComment: Caspase-6 inhibitor screening assay (BioVision kit, VEID-AFC)
# Assay type: biochemical
# settings: read-out: IC50 Casp6
pIC50: −log10 of the molar value.
measuredParameter: pIC50

See these solved cases before continuing.
Record summary for CCOC(=O)/C=C/[C@H](CC(=O)O)NC(=O)[C@H]1CCCN1C(=O)[C@@H](NC(=O)c1ccc(N)c(Cl)c1)C(C)(C)C : reported pIC50 = < 4.00

Record summary for CS(=O)(=O)/C=C/[C@H](CC(=O)O)NC(=O)C1CCCN1C(=O)[C@@H](NC(=O)[C@H](CC(=O)O)NC(=O)OCc1ccccc1)C1CC1 (stereo in doubt) : reported pIC50 = < 4.00

Next:
Record summary for CC(C)(C)[C@H](NC(=O)c1ccc2ccccc2n1)C(=O)N1CC[C@@H]1C(=O)N[C@H](/C=C/S(C)(=O)=O)CC(=O)O : reported pIC50 = < 4.00
